test: Acute i.v. infusion in rats; plasma and kidney levels by LC-MS-MS; type: in vivo, rat; settings: male, Sprague-Dawley, kidney, intravenous; rat, i.v. infusion 10 mg/kg/hr for 6 hours via jugular vein, LC-MS-MS; read-out: level in kidney tissue
Readout kind: concentration at 6 h (ng/mL)
API: value field is a number in ng/mL; no unit string.

## Input State the recorded concentration at 6 h for this entry: "CCCCCNC(=O)NCCCC/C=C\CCCCCCC(=O)NCCOCCOCCNC(=O)CC[C@H](NC(=O)c1ccc(NCc2cnc3nc(N)[nH]c(=O)c3n2)cc1)C(=O)O"
## Output 26.7

Where do the numbers come from? From patent US11358968B2.
